# TESTED_ON: T1, recombinant human ROR1-His (Sino Biological, 13968-H08H) (human, UniProt Q01973 30-406)
# T1 construct: extracellular domain; Bought protein; also called ROR1-HIS protein; not shown: His tag
# PROCEDURE_TEXT: ELISA, wells coated with human ROR1 protein (sheet: 'human ROR1'; text: ROR1-Fc or ROR1-His), IgG titrated, HRP anti-Fab detection, OD (450-650nm)
# Protocol: Anti-ROR1 antibody antigen binding affinity was assessed using an ELISA-based solution binding assay. […] Subsequently, the anti-ROR1 antibodies prepared in Embodiment 3 were added at the concentrations stated in FIG. 2 to a 96-well microtiter plate, and binding capacity was analyzed using ELISA as follows. […] After reacting for 1 hour at 37° C., the ROR1 antibodies bonded to the plate were detected. […]
MEASURED_ENDPOINT: EC50 (read off the curve)

Name the reported EC50 (read off the curve) value associated with the binder anti-ROR1 IgG antibody AB4 (antibody, V domains shown, Full IgG form (human IgG1 constant region, lambda light chain), expressed in CHO-S cells) VH: EVQLLESGGGLVQPGGSLRLSCAASGFTFSSYDMSWVRQAPGKGLEWVSWISPDSGSIYYADSVKGRFTISRDNSKNTLYLQMNSLRAEDTAVYYCARPTGRFDYWGQGTLVTVSS VL: QSVLTQPPSASGTPGQRVTISCSGSSSNIGNNNVNWYQQLPGTAPKLLIYYDNKRPSGVPDRFSGSKSGTSASLAISGLRSEDEADYYCGTWDASLSGYVFGGGTKLTVLG ~0.2 nM

Find the recorded EC50 (read off the curve) belonging to anti-ROR1 IgG antibody DG6 (antibody, V domains shown, Full IgG form (human IgG1 constant region, lambda light chain), expressed in CHO-S cells) VH: EVQLLESGGGLVQPGGSLRLSCAASGFTFSDYDMSWVRQAPGKGLEWVSVISPDGGSIYYADSVKGRFTISRDNSKNTLYLQMNSLRAEDTAVYYCARDVVECNMNPCSYDNAMDVWGQGTLVTVSS VL: QSVLTQPPSASGTPGQRVTISCSGSSSNIGSNYVSWYQQLPGTAPKLLIYDDSHRPSGVPDRFSGSKSGTSASLAISGLRSEDEADYYCGAWDDSLSGYVFGGGTKLTVLG and report it. ~0.1 nM
